Below, each entry is listed alongside its reported Percent Effect.
Tested on: Wolbachia pipientis
ASSAY EXPLANATION: Anti-Wolbachia Cell-Based Screen
Type: functional
Set-up: scale not given: in the data most compounds retested in dose-response had high values
CONDITION DETAILS: 5 µM
Screen size: about 48,000 compounds; about 13,000 (27%) showed an effect of 50% or more. Some of the results follow.
Kindly answer with a numeric value in %, unit omitted.

O=C(NCC1CC1)[C@H]1C[C@@H]2CCN(CCc3ccccc3)C[C@H]2O1.O=C(O)C(F)(F)F :: 16.57
COCCN1CCO[C@H]2CCN(C(=O)c3cccs3)CC[C@@H]21.O=C(O)C(F)(F)F :: 9.308
CC(C)(C)c1cn2nc(N3CCCC(Cn4cncn4)C3)sc2n1 (centres undefined) :: 16.07
CCCn1nc(C(=O)N2CCCC2c2noc(C)n2)ccc1=O (centres undefined) :: -9.694
O=C1Nc2ccccc2/C1=C1\CCCCCN1 :: 122.1

Fill in: Percent Effect of CC(C)N1CC[C@@H]2[C@H](COCC3CC3)CN(C)C(=O)[C@@H]2CC1.O=C(O)C(F)(F)F is ___ -0.4638

Can you share its Percent Effect? I mean this molecule: O=C(NCC1CC1)[C@@H]1C[C@@H]2CCN(Cc3ccccc3)C[C@H]2O1 100.1

Looking for the measured Percent Effect of CC(C)(C)OC(=O)N1CC(CC(=O)NCc2ccsc2)C1 , can you help? -134.2

----------
Test system: Wolbachia pipientis
ASSAY EXPLANATION: Anti-Wolbachia Cell-Based Screen
Type: functional
Parameters: scale not given: in the data most compounds retested in dose-response had high values
CONDITION DETAILS: 5 µM
Among all 48,000 compounds or so, about 13,000 (27%) showed an effect of 50% or more. The list shows a part of the results.
List of Percent Effect values.
Write it as a number; the unit % goes unstated.

Consider the following illustrative entries.
CCO[C@@H]1CC[C@H]2[C@H]1OCCN2C(=O)CC1=CCCCC1 :: 124.5
CN(C)CC(=O)N1Cc2nc(C(=O)NCc3ccncc3)oc2C1 :: -11.57
Cc1ccoc1-c1nnc(CN2CCn3c(nnc3C3CC3)C2)o1 :: 8.401
CO[C@H]1CC[C@H]2[C@H]1OCCN2C(=O)C1=CCCC1 :: 2.583
CO[C@@H]1CC[C@H]2[C@H]1OCCN2C(=O)C1=CCCC1 :: 4.441
CCOCC1CC2(CCN(C(=O)CC3=CCCCC3)CC2)CO1 (stereo not given) :: -15.26
O=C(C1=CCCC1)N1CCO[C@H]2[C@@H](OCC3CC3)CC[C@@H]21 :: -8.51
CC(C)[C@@H]1CN(Cc2cnc(C3CCCCC3)nc2)C[C@H]1C(=O)O :: -8.433

Form field: reported Percent Effect of COc1cc(OC)c(-c2nc3c([nH]2)c(C2CC2)nn3C)cc1OC 11.95

Given CSCC[C@@H](CO)Nc1nc(-c2ccccn2)nc2c1c(C)nn2C , state its recorded Percent Effect. -12.31

----------
Test system: Wolbachia pipientis
ASSAY EXPLANATION: Anti-Wolbachia Cell-Based Screen
Type: functional
Set-up: scale not given: in the data most compounds retested in dose-response had high values
CONDITION DETAILS: 5 µM
In all, about 48,000 compounds went through this assay and about 13,000 (27%) showed an effect of 50% or more. Some of the results follow.
Below is a list of entries, each paired with its recorded Percent Effect value.
Please make sure the unit comes right after the number.

Cc1cc(CN2CCOC(CN(C)c3cccnn3)C2)no1 (stereo not given) :: -1.412%
Cc1ccccc1-n1ccc2nc(N3CCCC3)ncc2c1=O :: -4.338%
O=C(O)C(F)(F)F.O=C(c1cc[nH]n1)N1CCC(F)(F)C2(CCN(c3ccccn3)C2)C1 (stereo not given) :: -20.89%
Fc1cnc(N2CCC3(CC2)CN(Cc2ccccn2)CCO3)nc1.O=C(O)C(F)(F)F.O=C(O)C(F)(F)F :: 3.828%
COCc1nc2ncc3c(=O)n(-c4cccc(OC)c4)ccc3n2n1 :: 97.73%

Request: Percent Effect, test system Wolbachia pipientis, entry O=c1c2cnc(N3CCCCC3)nc2ccn1-c1ccccc1F 37.48%

Write down the reported Percent Effect of COCc1nc2ncc3c(=O)n(-c4ccc(C(C)=O)cc4)ccc3n2n1 , test system: Wolbachia pipientis. 38.7%

Enter reported Percent Effect observed with Wolbachia pipientis for O=c1c2cnc(N3CCCC3)nc2ccn1-c1cccc(F)c1 -1.705%

Report Percent Effect for FC1(F)CCN(Cc2ccncc2)CC12CCN(c1cnccn1)C2.O=C(O)C(F)(F)F.O=C(O)C(F)(F)F.O=C(O)C(F)(F)F (stereo not given) tested on Wolbachia pipientis. 91.26%

Param readout= Percent Effect; system= Wolbachia pipientis; entry= COCc1nc2ncc3c(=O)n(-c4ccc(OC)cc4)ccc3n2n1 ; returns value. 103.2%
